B1: GFOD1 (parent)
chain: EEAEELAKEMSVPFYTSRIDEVLL

Variants of: B1
Assay: protein stability index of a GFP-peptide fusion (GPS, HEK-293T) (PSI 1-6); higher = more stable;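 also: lentivirally expressed fusions sorted by FACS into six bins by GFP to DsRed ratio, PSI derived from sequencing read proportions per bin multiplied by bin number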
Conditions: c terminus: a fixed tail appended
Readout kind: protein stability index

INSERT INTO measurements (variant_annotation, endpoint_value) VALUES
  ('S11I', 3.29),
  ('D20N', 3.29),
  ('V12K', 3.99),
  ('V22S', 3.86),
  ('E5R', 3.56),
  ('E2A', 3.66),
  ('D20G', 2.42),
  ('S11F', 2.72),
  ('A7R', 3.62),
  ('A7I', 2.77),
  ('L23E', 5.13),
  ('E1M', 3.45),
  ('V12M', 4.31),
  ('I19F', 3.01),
  ('L23H', 3.9),
  ('I19C', 4),
  ('V12I', 3.6),
  ('A7S', 3.6),
  ('F14R', 4.22),
  ('D20K', 2.78),
  ('L23G', 3.66),
  ('E2V', 3.64),
  ('L24I', 3.75),
  ('E4D', 3.97),
  ('F14W', 3.66),
  ('E21R', 2.8),
  ('A7P', 4.5),
  ('E9C', 2.55),
  ('S17W', 3),
  ('A3H', 3.84),
  ('L6Q', 3.7);
